system: 171881-019-R-J1-PDC tumor spheroid viability; experiment: Anticancer human tumor 171881-019-R-J1-PDC patient-derived invasive breast carcinoma cell line growth inhibition [PI3K]; details: second compound 1 µM; first compound 0.0316 µM; stronger effect = lower value; spheroids with HUVEC and MSC

molecule	viability, T/C (%)
Cn1nccc1Nc1nccc(-c2ccn(C(CO)c3ccc(Cl)c(F)c3)c(=O)c2)n1 (stereo not given) + CC(Nc1ccc2c(c1)OCCn1cc(N3C(=O)OCC3C(F)F)nc1-2)C(N)=O	18.3
CC1(C)CCC(CN2CCN(c3ccc(C(=O)NS(=O)(=O)c4ccc(NCC5CCOCC5)c([N+](=O)[O-])c4)c(Oc4cnc5[nH]ccc5c4)c3)CC2)=C(c2ccc(Cl)cc2)C1 + Cc1nc(NC(=O)N2CCCC2C(N)=O)sc1-c1ccnc(C(C)(C)C(F)(F)F)c1	33.8
Cn1ncc(Cl)c1-c1cc(C(=O)NC(CN)Cc2cccc(F)c2)sc1Cl (stereo not given) + CC(Nc1ccc2c(c1)OCCn1cc(N3C(=O)OCC3C(F)F)nc1-2)C(N)=O	20.2
CC(=O)c1c(C)c2cnc(Nc3ccc(N4CCNCC4)cn3)nc2n(C2CCCC2)c1=O + COc1c(OCCCN2CCOCC2)ccc2c3n(c(=NC(=O)c4cnc(N)nc4)nc12)CCN3	1.35
C#Cc1c(F)ccc2cc(O)cc(-c3ncc4c(N5CC6CCC(C5)N6)nc(OCC56CCCN5CC(F)C6)nc4c3F)c12 (stereo not given) + CC(Nc1ncnc2nc[nH]c12)c1cc2cccc(Cl)c2c(=O)n1-c1ccccc1	76

---

tested on: 171881-019-R-J1-PDC tumor spheroid viability; assay: Anticancer human tumor 171881-019-R-J1-PDC cell line growth inhibition [PI3K]; details: second compound 0.316 µM; first compound 0.00316 µM; spheroids with HUVEC and MSC; active = viability on the fitted dose curve at most 10% of control; inactive = the rest;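 further: spheroids exposed to compound for 7 days before viability read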
Classes used: active, inactive

compound	label.value
CC(=O)c1c(C)c2cnc(Nc3ccc(N4CCNCC4)cn3)nc2n(C2CCCC2)c1=O + COc1c(OCCCN2CCOCC2)ccc2c3n(c(=NC(=O)c4cnc(N)nc4)nc12)CCN3	active
CCN1CCN(Cc2ccc(Nc3ncc(F)c(-c4cc(F)c5nc(C)n(C(C)C)c5c4)n3)nc2)CC1 + CC(Nc1ccc2c(c1)OCCn1cc(N3C(=O)OCC3C(F)F)nc1-2)C(N)=O	inactive
CCN1CCN(Cc2ccc(Nc3ncc(F)c(-c4cc(F)c5nc(C)n(C(C)C)c5c4)n3)nc2)CC1 + Cc1nc(NC(=O)N2CCCC2C(N)=O)sc1-c1ccnc(C(C)(C)C(F)(F)F)c1	inactive
CCN1CCN(Cc2ccc(Nc3ncc(F)c(-c4cc(F)c5nc(C)n(C(C)C)c5c4)n3)nc2)CC1 + COc1c(OCCCN2CCOCC2)ccc2c3n(c(=NC(=O)c4cnc(N)nc4)nc12)CCN3	active
CC(C)n1nc(-c2ccc3oc(N)nc3c2)c2c(N)ncnc21 + CC(Nc1ncnc2nc[nH]c12)c1cc2cccc(Cl)c2c(=O)n1-c1ccccc1	inactive
Cn1ncnc1[C@H]1c2n[nH]c(=O)c3cc(F)cc(c23)N[C@@H]1c1ccc(F)cc1 + COc1c(OCCCN2CCOCC2)ccc2c3n(c(=NC(=O)c4cnc(N)nc4)nc12)CCN3	active
CCN1CCN(Cc2ccc(Nc3ncc(F)c(-c4cc(F)c5nc(C)n(C(C)C)c5c4)n3)nc2)CC1 + CC(Nc1ncnc2nc[nH]c12)c1cc2cccc(Cl)c2c(=O)n1-c1ccccc1	inactive
CC(=O)c1c(C)c2cnc(Nc3ccc(N4CCNCC4)cn3)nc2n(C2CCCC2)c1=O + CC(Nc1ncnc2nc[nH]c12)c1cc2cccc(Cl)c2c(=O)n1-c1ccccc1	inactive
Cn1ncnc1[C@H]1c2n[nH]c(=O)c3cc(F)cc(c23)N[C@@H]1c1ccc(F)cc1 + CC(Nc1ncnc2nc[nH]c12)c1cc2cccc(Cl)c2c(=O)n1-c1ccccc1	inactive
CC(=O)c1c(C)c2cnc(Nc3ccc(N4CCNCC4)cn3)nc2n(C2CCCC2)c1=O + Cc1nc(NC(=O)N2CCCC2C(N)=O)sc1-c1ccnc(C(C)(C)C(F)(F)F)c1	inactive

---

test system: 171881-019-R-J1-PDC tumor spheroid viability; assay: Anticancer human tumor 171881-019-R-J1-PDC cell line growth inhibition [PI3K]; settings: curve of first compound; second compound 10 µM; spheroids with HUVEC and MSC;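 further: spheroids exposed to compound for 7 days before viability read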

compound	uom	qualifier.operator	IC50
CC1(C)CCC(CN2CCN(c3ccc(C(=O)NS(=O)(=O)c4ccc(NCC5CCOCC5)c([N+](=O)[O-])c4)c(Oc4cnc5[nH]ccc5c4)c3)CC2)=C(c2ccc(Cl)cc2)C1 + Cc1nc(NC(=O)N2CCCC2C(N)=O)sc1-c1ccnc(C(C)(C)C(F)(F)F)c1	nM	<	31.6
CNC(=O)c1ccc(N2C(=S)N(c3ccc(C#N)c(C(F)(F)F)c3)C(=O)C2(C)C)cc1F + CC(Nc1ncnc2nc[nH]c12)c1cc2cccc(Cl)c2c(=O)n1-c1ccccc1	nM	=	4880
Cn1nccc1Nc1nccc(-c2ccn(C(CO)c3ccc(Cl)c(F)c3)c(=O)c2)n1 (stereo unspecified) + Cc1nc(NC(=O)N2CCCC2C(N)=O)sc1-c1ccnc(C(C)(C)C(F)(F)F)c1	nM	<	31.6
CC1(C)CCC(Nc2ncc(C(F)(F)F)c(-c3c[nH]c4c(P(C)(C)=O)c(C#N)ccc34)n2)CN1 (stereo unspecified) + Cc1nc(NC(=O)N2CCCC2C(N)=O)sc1-c1ccnc(C(C)(C)C(F)(F)F)c1	nM	<	31.6
CCCS(=O)(=O)Nc1ccc(F)c(C(=O)c2c[nH]c3ncc(-c4ccc(Cl)cc4)cc23)c1F + CC(Nc1ncnc2nc[nH]c12)c1cc2cccc(Cl)c2c(=O)n1-c1ccccc1	nM	=	4950
Cn1nccc1Nc1nccc(-c2ccn(C(CO)c3ccc(Cl)c(F)c3)c(=O)c2)n1 (stereo unspecified) + CC(Nc1ncnc2nc[nH]c12)c1cc2cccc(Cl)c2c(=O)n1-c1ccccc1	nM	=	35.5

---

Test system: 171881-019-R-J1-PDC tumor spheroid viability
Assay: Anticancer human tumor 171881-019-R-J1-PDC cell line growth inhibition [PI3K];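 further: spheroids exposed to compound for 7 days before viability read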;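 on viability, T/C: 100% = DMSO vehicle-treated spheroids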
Conditions: second compound 0.0316 µM; first compound 0.316 µM; stronger effect = lower value; spheroids with HUVEC and MSC
Description: Combinatorial screen of targeted agents with the PI3K inhibitors inavolisib, alpelisib, duvelisib, and copanlisib in multi-cell type tumor spheroids A high-throughput screen of multi-cell type tumor spheroids was designed to identify active combinations of targeted small molecules and PI3K pathway inhibitors. […] Compounds. […] If the clinical Cmax for an agent had not been determined, the highest concentration tested was 10 microM. […]
Lab note: cut-off is 30%. Strictly less in viability, T/C is yes. Exactly 30% or more is no.

compound	experimental.target	label.value
CNC(=O)c1ccc(N2C(=S)N(c3ccc(C#N)c(C(F)(F)F)c3)C(=O)C2(C)C)cc1F + Cc1nc(NC(=O)N2CCCC2C(N)=O)sc1-c1ccnc(C(C)(C)C(F)(F)F)c1	171881-019-R-J1-PDC tumor spheroid viability	no
Cn1ncc(Cl)c1-c1cc(C(=O)NC(CN)Cc2cccc(F)c2)sc1Cl (stereo unspecified) + CC(Nc1ncnc2nc[nH]c12)c1cc2cccc(Cl)c2c(=O)n1-c1ccccc1	171881-019-R-J1-PDC tumor spheroid viability	no
CCCS(=O)(=O)Nc1ccc(F)c(C(=O)c2c[nH]c3ncc(-c4ccc(Cl)cc4)cc23)c1F + CC(Nc1ncnc2nc[nH]c12)c1cc2cccc(Cl)c2c(=O)n1-c1ccccc1	171881-019-R-J1-PDC tumor spheroid viability	no
CNC(=O)c1ccc(N2C(=S)N(c3ccc(C#N)c(C(F)(F)F)c3)C(=O)C2(C)C)cc1F + COc1c(OCCCN2CCOCC2)ccc2c3n(c(=NC(=O)c4cnc(N)nc4)nc12)CCN3	171881-019-R-J1-PDC tumor spheroid viability	yes
C#Cc1c(F)ccc2cc(O)cc(-c3ncc4c(N5CC6CCC(C5)N6)nc(OCC56CCCN5CC(F)C6)nc4c3F)c12 (stereo unspecified) + CC(Nc1ccc2c(c1)OCCn1cc(N3C(=O)OCC3C(F)F)nc1-2)C(N)=O	171881-019-R-J1-PDC tumor spheroid viability	yes
Cn1nccc1Nc1nccc(-c2ccn(C(CO)c3ccc(Cl)c(F)c3)c(=O)c2)n1 (stereo unspecified) + CC(Nc1ccc2c(c1)OCCn1cc(N3C(=O)OCC3C(F)F)nc1-2)C(N)=O	171881-019-R-J1-PDC tumor spheroid viability	yes

---

tested on: 171881-019-R-J1-PDC tumor spheroid viability; assay: Anticancer human tumor 171881-019-R-J1-PDC cell line growth inhibition [PI3K]; settings: second compound 0.316 µM; first compound 0.1 µM; stronger effect = lower value; spheroids with HUVEC and MSC;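 further: spheroids exposed to compound for 7 days before viability read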;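 on viability, T/C: 100% = DMSO vehicle-treated spheroids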

compound	experimental.target	uom	viability, T/C
C#Cc1c(F)ccc2cc(O)cc(-c3ncc4c(N5CC6CCC(C5)N6)nc(OCC56CCCN5CC(F)C6)nc4c3F)c12 (configuration not stated) + CC(Nc1ccc2c(c1)OCCn1cc(N3C(=O)OCC3C(F)F)nc1-2)C(N)=O	171881-019-R-J1-PDC tumor spheroid viability	%	15.7
CNC(=O)c1ccc(N2C(=S)N(c3ccc(C#N)c(C(F)(F)F)c3)C(=O)C2(C)C)cc1F + CC(Nc1ncnc2nc[nH]c12)c1cc2cccc(Cl)c2c(=O)n1-c1ccccc1	171881-019-R-J1-PDC tumor spheroid viability	%	93.3
C=CC(=O)N1CCN(c2nc(=O)n(-c3c(C)ccnc3C(C)C)c3nc(-c4c(O)cccc4F)c(F)cc23)C(C)C1 (configuration not stated) + Cc1nc(NC(=O)N2CCCC2C(N)=O)sc1-c1ccnc(C(C)(C)C(F)(F)F)c1	171881-019-R-J1-PDC tumor spheroid viability	%	50.9
CC(C)n1nc(-c2ccc3oc(N)nc3c2)c2c(N)ncnc21 + CC(Nc1ccc2c(c1)OCCn1cc(N3C(=O)OCC3C(F)F)nc1-2)C(N)=O	171881-019-R-J1-PDC tumor spheroid viability	%	2.96
C=CC(=O)N1CCN(c2nc(=O)n(-c3c(C)ccnc3C(C)C)c3nc(-c4c(O)cccc4F)c(F)cc23)C(C)C1 (configuration not stated) + CC(Nc1ccc2c(c1)OCCn1cc(N3C(=O)OCC3C(F)F)nc1-2)C(N)=O	171881-019-R-J1-PDC tumor spheroid viability	%	29.2
C#Cc1c(F)ccc2cc(O)cc(-c3ncc4c(N5CC6CCC(C5)N6)nc(OCC56CCCN5CC(F)C6)nc4c3F)c12 (configuration not stated) + Cc1nc(NC(=O)N2CCCC2C(N)=O)sc1-c1ccnc(C(C)(C)C(F)(F)F)c1	171881-019-R-J1-PDC tumor spheroid viability	%	30.1
CC1(C)CCC(CN2CCN(c3ccc(C(=O)NS(=O)(=O)c4ccc(NCC5CCOCC5)c([N+](=O)[O-])c4)c(Oc4cnc5[nH]ccc5c4)c3)CC2)=C(c2ccc(Cl)cc2)C1 + CC(Nc1ncnc2nc[nH]c12)c1cc2cccc(Cl)c2c(=O)n1-c1ccccc1	171881-019-R-J1-PDC tumor spheroid viability	%	88.2
